TEST NAME: Per rectal versus oral dosing of active parent: colon, liver, plasma exposure
Assay type: in vivo
CONDITIONS USED: colon and plasma, other: per rectal (PR); mouse; PR 30 mg/kg; 1 h; read-out: colon:plasma ratio (unbound)
Description: Prior to dosing, mice were anaesthetized with Isoflurane and fecal material was removed from colons by irrigating with 0.5 mL of PBS using a syringe fitted with a 22 gauge flexible gavage needle. […] Spiked standards were prepared in the appropriate matrices. […] Peak areas were determined using Sciex Analyst™ 1.6 software. Actual concentrations were calculated by regression analysis of the peak area ratio (parent / internal standard) of the spiked standards versus concentration.
QUANTITY NAME: Kp at 1 h
Number only, no unit.

Given item O[C@H]1CC[C@H](n2cc(Nc3nc(C4CCCCC4)cn4ncnc34)cn2)CC1 , the value recorded as its Kp at 1 h is 22
